Parameter: IC50. Scope: all listed entries.
System: Receptor-type tyrosine-protein kinase FLT3 (Homo sapiens)
Sequence (P36888 whole entry): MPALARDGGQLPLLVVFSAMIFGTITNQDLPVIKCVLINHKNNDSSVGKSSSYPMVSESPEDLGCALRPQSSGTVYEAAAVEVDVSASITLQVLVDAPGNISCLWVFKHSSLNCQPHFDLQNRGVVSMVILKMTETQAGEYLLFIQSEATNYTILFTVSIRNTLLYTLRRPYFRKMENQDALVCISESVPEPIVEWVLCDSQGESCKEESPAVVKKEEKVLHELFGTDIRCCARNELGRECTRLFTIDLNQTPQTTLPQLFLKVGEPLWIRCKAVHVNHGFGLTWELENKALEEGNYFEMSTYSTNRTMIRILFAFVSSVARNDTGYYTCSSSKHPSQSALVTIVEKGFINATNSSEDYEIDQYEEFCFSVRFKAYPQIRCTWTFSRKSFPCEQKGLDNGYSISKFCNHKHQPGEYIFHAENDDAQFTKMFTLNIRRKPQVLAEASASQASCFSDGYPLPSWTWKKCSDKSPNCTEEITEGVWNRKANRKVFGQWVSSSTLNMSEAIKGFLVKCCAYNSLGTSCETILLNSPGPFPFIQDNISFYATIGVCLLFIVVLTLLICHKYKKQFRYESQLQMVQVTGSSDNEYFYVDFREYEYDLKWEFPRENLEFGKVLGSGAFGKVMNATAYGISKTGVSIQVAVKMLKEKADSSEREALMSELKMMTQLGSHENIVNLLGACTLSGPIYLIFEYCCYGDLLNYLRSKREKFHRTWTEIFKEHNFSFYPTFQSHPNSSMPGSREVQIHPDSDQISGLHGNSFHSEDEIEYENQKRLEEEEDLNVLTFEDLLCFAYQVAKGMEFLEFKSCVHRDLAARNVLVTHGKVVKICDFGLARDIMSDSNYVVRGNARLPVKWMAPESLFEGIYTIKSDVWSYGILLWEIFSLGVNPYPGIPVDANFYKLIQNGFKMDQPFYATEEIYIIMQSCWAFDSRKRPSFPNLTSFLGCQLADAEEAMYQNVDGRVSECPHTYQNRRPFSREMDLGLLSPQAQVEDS
Measurement Notes: Inhibition of FLT3 (unknown origin)
Report the figure in µM without appending any unit label.

Input line: For Receptor-type tyrosine-protein kinase FLT3 (Homo sapiens), give the measured IC50 of the entry O=C(Nc1ccc(Oc2ncnc3[nH]ncc23)cc1)Nc1ccc(C(F)(F)F)cc1
Output line: 0.032

Input line: For Receptor-type tyrosine-protein kinase FLT3 (Homo sapiens), give the measured IC50 of the entry O=C(Nc1ccc(Oc2ncnc3[nH]ncc23)cc1)Nc1ccc(Cl)c(C(F)(F)F)c1
Output line: 0.039

====

System: Vascular endothelial growth factor receptor 2 (Danio rerio, UniProt Q5GIT4)
Sequence (Q5GIT4 whole entry): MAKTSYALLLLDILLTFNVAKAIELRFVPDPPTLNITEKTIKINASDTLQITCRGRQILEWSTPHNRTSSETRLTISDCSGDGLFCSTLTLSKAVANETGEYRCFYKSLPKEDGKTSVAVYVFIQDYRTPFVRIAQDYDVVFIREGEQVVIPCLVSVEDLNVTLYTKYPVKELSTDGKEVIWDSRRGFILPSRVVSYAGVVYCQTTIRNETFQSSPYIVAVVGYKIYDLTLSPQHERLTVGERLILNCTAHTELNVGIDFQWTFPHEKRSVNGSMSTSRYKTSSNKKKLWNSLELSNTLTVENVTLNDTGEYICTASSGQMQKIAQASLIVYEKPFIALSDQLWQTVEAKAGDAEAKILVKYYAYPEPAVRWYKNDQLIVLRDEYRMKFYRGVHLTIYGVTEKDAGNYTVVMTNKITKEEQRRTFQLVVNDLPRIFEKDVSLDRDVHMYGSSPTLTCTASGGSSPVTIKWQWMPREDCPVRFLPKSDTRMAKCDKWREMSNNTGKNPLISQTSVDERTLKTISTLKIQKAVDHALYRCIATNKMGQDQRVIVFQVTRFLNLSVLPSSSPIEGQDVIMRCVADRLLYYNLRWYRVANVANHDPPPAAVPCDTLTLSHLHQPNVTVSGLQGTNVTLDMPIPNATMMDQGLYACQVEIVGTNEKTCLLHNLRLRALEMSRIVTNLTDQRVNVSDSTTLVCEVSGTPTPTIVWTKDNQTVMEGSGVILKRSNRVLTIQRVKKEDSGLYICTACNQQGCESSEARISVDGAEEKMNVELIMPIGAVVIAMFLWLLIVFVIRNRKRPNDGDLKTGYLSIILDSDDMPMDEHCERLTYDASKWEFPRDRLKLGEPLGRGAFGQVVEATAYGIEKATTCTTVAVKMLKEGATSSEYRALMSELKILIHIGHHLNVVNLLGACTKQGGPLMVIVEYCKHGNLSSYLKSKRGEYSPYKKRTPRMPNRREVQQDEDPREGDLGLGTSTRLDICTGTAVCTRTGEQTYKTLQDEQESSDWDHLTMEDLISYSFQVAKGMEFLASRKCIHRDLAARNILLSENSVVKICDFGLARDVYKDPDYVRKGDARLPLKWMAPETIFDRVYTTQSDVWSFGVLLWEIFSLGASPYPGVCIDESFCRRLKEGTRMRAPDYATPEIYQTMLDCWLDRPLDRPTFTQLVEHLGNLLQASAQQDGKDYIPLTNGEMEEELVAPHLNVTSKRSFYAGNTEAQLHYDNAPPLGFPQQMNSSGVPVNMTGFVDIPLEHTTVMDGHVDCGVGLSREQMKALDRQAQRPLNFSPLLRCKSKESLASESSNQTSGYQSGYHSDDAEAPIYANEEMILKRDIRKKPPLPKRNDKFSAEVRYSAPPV
Endpoint: IC50 (µM)
Report the figure in µM without appending any unit label.

O=C(Nc1ccc(Oc2ncnc3[nH]ncc23)cc1)Nc1ccc(Cl)c(C(F)(F)F)c1; 2.5
O=C(Cc1ccc(Br)cc1)Nc1ccc(Oc2ncnc3n[nH]cc23)cc1; 74.7
O=C(Nc1ccc(Oc2ncnc3n[nH]cc23)cc1)Nc1cc(C(F)(F)F)cc(C(F)(F)F)c1; 5.18

Input line: For the compound O=C(Nc1ccccc1)Nc1ccc(Oc2ncnc3n[nH]cc23)cc1 , give its reported IC50.
Output line: 20.2

Input line: For the compound O=C(Nc1ccc(Oc2ncnc3[nH]ncc23)cc1)Nc1ccc(C(F)(F)F)cc1Cl , give its reported IC50.
Output line: 8.46

Input line: For the compound Cc1cccc(NC(=O)Nc2ccc(Oc3ncnc4[nH]ncc34)cc2)c1C , give its reported IC50.
Output line: 98.8

Input line: For the compound O=C(Nc1ccc(Oc2ncnc3[nH]ncc23)cc1)Nc1ccc(C(F)(F)F)cc1 , give its reported IC50.
Output line: 1.2

Input line: For the compound CC(C)c1cccc(NC(=O)Nc2ccc(Oc3ncnc4n[nH]cc34)cc2)c1 , give its reported IC50.
Output line: 7.73

// data source = ChEMBL document CHEMBL2331331
